# LC50 at 48 h per record follows
Experiment: in vivo
Type: in vivo
Conditions: Balanus amphitrite (barnacle) cyprid larvae, in vivo; B. amphitrite cyprids, 48 h; concentration where 50% of larvae dead
MEASUREMENT_TYPE: LC50 at 48 h

INSERT INTO results (smiles_entry, meas_value) VALUES
  ('CC(C)CNC(=O)/C=C/C=C/CCCCCC/C=C/c1ccc2c(c1)OCO2', '> 200 mg/L'),
  ('O=C(/C=C/C=C/c1ccc2c(c1)OCO2)N1CCCCC1', '> 100 mg/L');

* * *

Test: inhibition of larvae settlement of H. elegans
Type: in vivo
Settings: Hydroides elegans (polychaete tubeworm) larvae, in vivo, other: immersion in test solution; H. elegans larvae, 48 h
MEASUREMENT_TYPE: LC50 at 48 h

INSERT INTO assay_data (molecule, meas_value) VALUES
  ('O=C(CCCCCC/C=C/c1ccc2c(c1)OCO2)N1CCCCC1 [Compound 1]', '> 50 µg/mL'),
  ('O=C(/C=C/C=C/CCc1ccc2c(c1)OCO2)N1CCCCC1 [Compound 3]', '> 100 µg/mL');

* * *

Tested on: B. neritina larvae
Assay: inhibition of larvae settlement of B. neritina
Type: in vivo
Settings: B. neritina; ratio >10 regarded as non-toxic
// values below are reported LC50/EC50
MEASUREMENT_TYPE: LC50/EC50

INSERT INTO assay_data (smiles_entry, meas_value) VALUES
  ('O=C(/C=C/C=C/c1ccc2c(c1)OCO2)N1CCCCC1', '>30.3'),
  ('CC(C)CNC(=O)/C=C/C=C/CCCCCC/C=C/c1ccc2c(c1)OCO2', '>17.6'),
  ('O=C(/C=C/C=C/CCc1ccc2c(c1)OCO2)N1CCCCC1', '>11.7'),
  ('O=C(CCCCCC/C=C/c1ccc2c(c1)OCO2)N1CCCCC1', '>14.7');

* * *

Test: inhibition of larvae settlement of B. neritina
Assay type: in vivo
Conditions: Bugula neritina (bryozoan) larvae, in vivo; B. neritina larvae, 24 h
MEASUREMENT_TYPE: LC50 at 24 h

INSERT INTO measurements (smiles_entry, measurement_type, meas_value) VALUES
  ('CC(C)CNC(=O)/C=C/C=C/CCCCCC/C=C/c1ccc2c(c1)OCO2', 'LC50 at 24 h', '> 100 µg/mL'),
  ('O=C(/C=C/C=C/c1ccc2c(c1)OCO2)N1CCCCC1', 'LC50 at 24 h', '> 50 µg/mL');

* * *

System: B. amphitrite cyprids
Assay: whole plant or invertebrate
Assay type: in vivo
Conditions: B. amphitrite; ratio >10 regarded as non-toxic
MEASUREMENT_TYPE: LC50/EC50

INSERT INTO measurements (smiles_entry, meas_value) VALUES
  ('O=C(/C=C/C=C/CCc1ccc2c(c1)OCO2)N1CCCCC1', '>24.0'),
  ('CC(C)CNC(=O)/C=C/C=C/CCCCCC/C=C/c1ccc2c(c1)OCO2', '>12.1'),
  ('O=C(/C=C/C=C/c1ccc2c(c1)OCO2)N1CCCCC1', '>71.4'),
  ('O=C(CCCCCC/C=C/c1ccc2c(c1)OCO2)N1CCCCC1', '>86.9');

* * *

Assay: inhibition of larvae settlement of H. elegans
Assay type: in vivo
Settings: Hydroides elegans (polychaete tubeworm) larvae, in vivo; H. elegans larvae, 48 h
MEASUREMENT_TYPE: LC50 at 48 h

INSERT INTO measurements (molecule, meas_value) VALUES
  ('O=C(/C=C/C=C/c1ccc2c(c1)OCO2)N1CCCCC1 [Compound 2]', '> 50 µg/mL'),
  ('CC(C)CNC(=O)/C=C/C=C/CCCCCC/C=C/c1ccc2c(c1)OCO2 [Compound 4]', '> 100 µg/mL');
